Source of measurements: PubChem BioAssay (NCI)

test system: M14 melanoma; assay: NCI tumour cell line growth inhibition, 48 h
assay_metric: TGI

Entry `CC(=O)NNc1nc(C)c(C(=O)NNC(=O)C(=O)Nc2ccc(Cl)cc2Cl)s1` ; TGI = > 100 µM

Entry C=CCc1cc(OC)c2c(c1)C(OC)CC(c1ccc(OC)c(OC)c1)O2 (configuration not stated) ; TGI = > 100 µM

Entry COc1ccc(C(OCC2OC(n3ccc(NC(=O)c4ccccc4)nc3=O)CC2OP2(=S)SCCS2)(c2ccccc2)c2ccc(OC)cc2)cc1 (configuration not stated) ; TGI = 66.2 µM

Entry `N=c1c2c(=N)n3c(nc2nc2n1-c1ccccc1Sc1ccccc1-2)sc1cc(Cl)ccc13` ; TGI = > 100 µM

Entry `CC(=O)N1CCn2c1nc1cc(Cl)ccc12` ; TGI = > 100 µM

Entry `COc1nnc2ccc(N3CCC(c4ccc(OCCN5CCN(C)C(=O)[C@H]5C)cc4)CC3)nn12` ; TGI = > 100 µM

Entry N#CC1c2ccccc2C=CN1C(=O)N(c1ccccc1)c1ccccc1 (configuration not stated) ; TGI = 5.19 µM

Entry `O=C(NNc1ccccc1)/C(=C/c1ccc2c(c1)OCO2)NC(=O)c1ccccc1` ; TGI = > 100 µM

Entry `COc1cccc(/C=C2\COc3ccc(-c4ccccc4)cc3C2=O)c1` ; TGI = 14.9 µM

Entry `CC(=N\N)/C(C)=N/N=C(C)/C(C)=N/N=C(C)/C(C)=N/N` ; TGI = > 100 µM

Entry `C#CCOc1ccc2ncnc(Nc3ccc(NC(=O)C=C)cc3)c2c1` ; TGI = > 100 µM

Entry Nc1ncnc2c1ncn2C1CC(OCc2ccccc2[N+](=O)[O-])C(CO)O1 (configuration not stated) ; TGI = > 50 µM

Entry `Cc1nc2c(=S)n(C)ncc2[nH]1` ; TGI = > 100 µM

Entry NC(=S)c1c(N)n(C2OC(CO)C(O)C2O)c2ncnc(N)c12 (configuration not stated) ; TGI = 0.648 µM

Entry `CC1=C(C(=O)Nc2ccc(Cl)c(C(=O)OC(C)C)c2)SCCO1` ; TGI = > 100 µM

Entry CC(SC(=O)Nc1ccc(N=Nc2ccccc2)cc1)C(=O)O (configuration not stated) ; TGI = > 100 µM

Entry `c1cnc(N2CCN(Cc3c[nH]c4ccccc34)CC2)nc1` ; TGI = > 100 µM

Entry `CN(C)C(=S)SCC(=O)Nc1ccccc1` ; TGI = > 100 µM

Entry CSC1NC(c2ccc(Cl)cc2)=C(C#N)C(=O)N1C1OCC(OC(C)=O)C(OC(C)=O)C1OC(C)=O (configuration not stated) ; TGI = > 100 µM

Entry C[C@]12CCC3[C@@H](CC[C@@H]4c5nonc5CC[C@]34C)C1CC[C@@H]2O (some centres not stated) ; TGI = 53 µM

Entry `O=C(OCC(Cl)(Cl)Cl)O[C@@H]1CCCC1(c1ccccc1)c1ccccc1` ; TGI = > 100 µM

Entry `O=[N+]([O-])c1ccc(O)c(/C=N/NC(=S)N2CCCCC2)c1` ; TGI = > 100 µM

Entry `O=C1/C=C/[C@@H](O)[C@@H]2C[C@@H](O)C[C@H]2/C=C/CCC[C@H](C(F)(F)F)O1` ; TGI = 3.71 µM

Entry `CCc1ccccc1NNc1cc(=O)[nH]c(=O)[nH]1` ; TGI = 35.1 µM

Entry `COc1ccccc1C[C@@H]1OC2(C=CC(=O)C=C2)O[C@H]1Cc1ccccc1OC` ; TGI = 17.5 µM

Entry `Cn1c(N/N=C/c2ccccc2)nc(-c2ccc([N+](=O)[O-])cc2)c(C#N)c1=O` ; TGI = > 100 µM

Entry `COc1ccc(N=N/C(C(=O)C(F)(F)F)=C(\O)c2ccc(Cl)cc2)cc1` ; TGI = 14.9 µM

Entry `CSC(=Nc1ccccc1)/N=C(\SCc1ccccc1)N(C)C` ; TGI = 2.12 µM

Entry `CCOC(=O)Oc1ccc2c(c1)c(=O)c1c(NCCN(CC)CC)ccc3nnn2c31` ; TGI = 19.1 µM

Entry `CN1CSC(=S)N(Cc2ccccc2)C1` ; TGI = 21.8 µM

Entry `Cc1ccc(NC(=O)C(=O)CC(=O)c2sc(Nc3c(C)cccc3C)nc2C)cc1C` ; TGI = > 100 µM

Entry `CC1=C(Nc2ccc(N3CCN(C)CC3)cc2)C(=O)c2cncnc2C1=O` ; TGI = 32.2 µM

Entry CC(=O)OC1COC(n2c(=S)n(-c3ccccc3)c(=O)c3ccccc32)C(OC(C)=O)C1OC(C)=O (configuration not stated) ; TGI = > 100 µM

Entry Nc1ncnc2c1ncn2C1OC(CO)C(O)C1N (configuration not stated) ; TGI = > 100 µM

Entry COc1cc(C2c3cc4c(cc3OC(N3CCNCC3)C2C)OCO4)cc(OC)c1OC (configuration not stated) ; TGI = 20 µM

Entry COc1ccc(C(C2=C(O)COC2=O)c2cc3c(cc2O)OCO3)cc1OC (configuration not stated) ; TGI = > 100 µM

Entry `COc1cc(-c2nn(-c3cccc(NC(=O)c4ccc(Cl)c(C(F)(F)F)c4)c3)cc2-c2ccncc2)ccc1Cl` ; TGI = > 32.5 µM

Entry `Nc1c(Cl)ncnc1NCCCNc1ncnc(Cl)c1N` ; TGI = > 100 µM

Entry CC1(c2ccc(Cl)cc2)C2C(=O)NC(=O)C1C(=O)NC2=O (configuration not stated) ; TGI = > 100 µM

Entry O=[N+]([O-])c1cccc(C2CC(c3ccccc3)=Nc3ccccc3S2)c1 (configuration not stated) ; TGI = 44.6 µM

Entry `COc1ccc2c(OCc3nnc4ccc(-c5ccccc5)nn34)ccnc2c1` ; TGI = > 100 µM

Entry `O=C1Nc2ccccc2/C1=c1\[nH]c(=O)/c(=C\c2ccc(OCc3ccccc3)cn2)[nH]c1=O` ; TGI = > 100 µM
